# Test system: S. pneumoniae ATCC 49619
# ASSAY: MIC, NCCLS broth microdilution assay
# Format: cell-based, Streptococcus pneumoniae
# TEST_CONTEXT: H = S. pneumoniae ATCC 49619
# Protocol: Compounds according to this invention were screened for their in vitro activities against selected species of bacteria and fungi. The minimal inhibition concentration (MIC) of these compounds was determined using the National Committee for Clinical Laboratory Standards (NCCLS) broth microdilution assay in microtiter plates, as set forth in: (1) the guidelines of the National. […]
ASSAY_METRIC: Minimum Inhibitory Concentration (MIC)

Examples with their reported Minimum Inhibitory Concentration (MIC) follow.
stdin: Recorded Minimum Inhibitory Concentration (MIC) for Cn1cc(NC(=O)c2cc(NC(=O)c3cc(NC(=O)c4ccc(Cl)cc4)cn3C)cn2C)cc1C(=O)NCCN1CCSCC1 , please?
stdout: +++ (+++ = MIC ≦ 4)

stdin: // query Minimum Inhibitory Concentration (MIC) value for entry Cn1cc(NC(=O)c2ccc(F)cc2F)cc1C(=O)Nc1cc(C(=O)Nc2cc(C(=O)N3CCC(O)CC3)n(C)c2)n(C)c1
stdout: >32 µg/mL

stdin: // query Minimum Inhibitory Concentration (MIC) value for entry Cn1cc(NC(=O)c2cc(NC(=O)c3cc(NC(=O)c4ccc(F)cc4F)cn3C)cn2C)cc1C(=O)NCCN1CCNCC1
stdout: +++ (+++ = MIC ≦ 4)

stdin: Record request: Minimum Inhibitory Concentration (MIC) value, item Cn1cc(NC(=O)c2cc(NC(=O)c3cc(NC(=O)c4ccc(OC(F)F)cc4)cn3C)cn2C)cc1C(=O)NCCN1CCSCC1
stdout: +++ (+++ = MIC ≦ 4)

stdin: Return reported Minimum Inhibitory Concentration (MIC); argument: Cn1cc(NC(=O)c2cc(NC(=O)c3cc(NC(=O)c4ccc(F)cc4F)cn3C)cn2C)cc1C(=O)NCCc1cccnc1
stdout: +++ (+++ = MIC ≦ 4)

Could you now consider this next molecule?
stdin: For the molecule CN(C)CCCn1cc(NC(=O)c2cc(NC(=O)c3ccc(Cl)cc3F)cn2C)cc1C(=O)Nc1cc(C(=O)NCCN2CCOCC2)n(C)c1 , what Minimum Inhibitory Concentration (MIC) is on record?
stdout: +++ (+++ = MIC ≦ 4)

* * *

# Test system: Staphylococcus epidermidis (ATCC 12228)
# ASSAY: MIC, NCCLS broth microdilution assay
# Type: cell-based
# TEST_CONTEXT: G = S. epidermidis ATCC 12228
# Excerpt: In vitro biological activity data were collected for a variety of microorganisms, including Bacillus cereus (ATCC 11778), Staphylococcus aureus (ATCC 27660, a methicillin resistant strain (MRSA); ATCC 13709, a methicillin sensitive strain (MSSA)); Streptococcus pneumoniae (ATCC 51422, a penicillin resistant strain (PRSP)), Enterococcus faecium (ATCC 51559, a vancomycin resistant strain (VRE)), and Staphylococcus epidermidis (ATCC 12228). […]
ASSAY_METRIC: Minimum Inhibitory Concentration (MIC)

# count of solved cases: 5
stdin: Give its Minimum Inhibitory Concentration (MIC) value. Item: Cc1cc(NC(=O)c2cc(NC(=O)c3cc(NC(=O)c4ccc(F)cc4F)cn3C)cn2CCCN(C)C)sn1
stdout: +++ (+++ = MIC ≦ 4)

stdin: # query: Minimum Inhibitory Concentration (MIC) of entry Cn1cc(NC(=O)c2cc(NC(=O)c3cc(NC(=O)c4ccc(F)cc4F)c[nH]3)cn2C)cc1C(=O)NCCN1CCCC1
stdout: +++ (+++ = MIC ≦ 4)

stdin: What measured Minimum Inhibitory Concentration (MIC) goes with Cn1cc(NC(=O)c2cc(NC(=O)c3cc(NC(=O)c4ccc(F)cc4F)cn3C)cn2C)cc1C(=O)NCCN1CCOCC1 ?
stdout: +++ (+++ = MIC ≦ 4)

stdin: # input compound: CN(C)CCCn1cc(NC(=O)c2cc(NC(=O)c3cc(NC(=O)c4ccc(F)cc4F)cn3C)cn2C)cc1C(=O)NCCN1CCCCC1 ; wanted: its Minimum Inhibitory Concentration (MIC)
stdout: +++ (+++ = MIC ≦ 4)

stdin: What does the data say about its Minimum Inhibitory Concentration (MIC)? Entry: Cn1cc(NC(=O)c2cc(NC(=O)c3cc(NC(=O)c4ccc(Cl)cc4F)cn3C)cn2C)cc1C(=O)NCCN1CCOCC1
stdout: +++ (+++ = MIC ≦ 4)

Next:
stdin: Dear colleague, I am looking for the recorded Minimum Inhibitory Concentration (MIC) of the following compound: Cn1cc(NC(=O)c2cc(NC(=O)c3ccc(Cl)cc3F)c[nH]2)cc1C(=O)NCCN1CCSCC1
stdout: +++ (+++ = MIC ≦ 4)

stdin: GET /values?readout=Minimum Inhibitory Concentration (MIC)&item= Cn1cc(NC(=O)c2cc(NC(=O)c3ccc(Cl)cc3F)cn2C)cc1C(=O)NCCN1CCOCC1
stdout: +++ (+++ = MIC ≦ 4)
